Listing of recorded IC50 by entry.
test.target: Proto-oncogene tyrosine-protein kinase receptor Ret [V804M] (Human, UniProt P07949, V804M)
Sequence (P07949 29-1114 V804M limits assumed): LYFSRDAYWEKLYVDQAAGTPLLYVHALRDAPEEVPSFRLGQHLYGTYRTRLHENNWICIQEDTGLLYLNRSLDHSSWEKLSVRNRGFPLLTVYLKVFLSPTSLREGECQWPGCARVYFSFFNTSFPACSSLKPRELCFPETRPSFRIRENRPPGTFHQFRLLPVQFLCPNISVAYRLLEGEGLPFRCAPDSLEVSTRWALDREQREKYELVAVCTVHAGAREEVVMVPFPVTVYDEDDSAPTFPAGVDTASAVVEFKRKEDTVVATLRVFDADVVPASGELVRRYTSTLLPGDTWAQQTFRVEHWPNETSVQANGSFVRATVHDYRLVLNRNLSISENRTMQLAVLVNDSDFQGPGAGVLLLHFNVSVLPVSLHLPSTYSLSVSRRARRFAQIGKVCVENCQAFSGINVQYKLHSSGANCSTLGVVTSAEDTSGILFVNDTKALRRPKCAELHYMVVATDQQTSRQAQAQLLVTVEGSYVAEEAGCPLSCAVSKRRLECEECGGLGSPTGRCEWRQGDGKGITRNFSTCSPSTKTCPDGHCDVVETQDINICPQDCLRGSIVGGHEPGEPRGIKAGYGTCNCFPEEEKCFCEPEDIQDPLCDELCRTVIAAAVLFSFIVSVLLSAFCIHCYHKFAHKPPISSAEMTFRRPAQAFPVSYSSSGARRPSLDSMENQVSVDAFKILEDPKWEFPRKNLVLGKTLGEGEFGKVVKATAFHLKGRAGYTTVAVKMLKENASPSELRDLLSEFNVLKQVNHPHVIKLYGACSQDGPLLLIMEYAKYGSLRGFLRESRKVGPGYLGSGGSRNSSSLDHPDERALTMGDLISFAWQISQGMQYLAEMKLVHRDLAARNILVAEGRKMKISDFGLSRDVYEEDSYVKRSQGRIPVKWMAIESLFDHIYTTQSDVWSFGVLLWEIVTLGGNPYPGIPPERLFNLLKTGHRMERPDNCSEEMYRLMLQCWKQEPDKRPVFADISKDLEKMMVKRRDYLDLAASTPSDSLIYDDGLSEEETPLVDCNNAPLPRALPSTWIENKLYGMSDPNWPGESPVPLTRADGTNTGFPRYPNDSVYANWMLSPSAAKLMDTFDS
protocol.description: Inhibitory Activity Assay
Answer with a number only, understood to be in nM.

C#Cc1ccc(CN2C3CC2CN(c2ccc(-c4cc(-c5cnn(C)c5)cn5ncc(C#N)c45)cn2)C3)cn1 0.76
C#CC#CCN1C2CC1CN(c1ccc(-c3cc(-c4cnn(C)c4)cn4ncc(C#N)c34)cn1)C2 1.08
C#Cc1cccc(C(=O)NC2CCN(c3ccc(-c4cc(-c5cnn(C)c5)cn5ncc(C#N)c45)cn3)CC2)c1 30.8

Now for the molecule whose IC50 we want.
Which IC50 value belongs to `C#Cc1ncc(CN2C3CC2CN(c2ccc(-c4cc(-c5cnn(C)c5)cn5ncc(C#N)c45)cn2)C3)cc1F` ?
0.3
